Origin of values: patent US6831199B1

target: Human vitronectin receptor (αvβ3) (Homo sapiens, UniProt P05106+P06756)
Construct: Human vitronectin receptor (αvβ3) was purified from human placenta; from tissue; host or cells: human placenta
protocol details: Vitronectin adhesion assay (solid phase receptor assay, competition with biotinylated vitronectin)
Assay type: binding
experimental conditions: read-out: AvB3 IC50
pIC50: −log10 of the molar value. Structures can show the parent of a compound that is named as a salt.
Tag: 1 (yes) if measured pIC50 is not below 9, 0 (no) if it is.

Field: example entries. Status: answers known.
hey, is pIC50 for this one >= 9? O=C(O)CC(NC(=O)CNC(=O)c1cccc(NC2=NCCN2)c1)c1cc(C(F)(F)F)cc(C(F)(F)F)c1 (racemic) [Example 179, trifluoroacetate salt]
0 (no)

Item C/N=C(\NCc1ccncc1)Nc1cccc(C(=O)NCC(=O)NC(CC(=O)O)c2ccc(F)cc2)c1 (racemic) [Example 299, trifluoroacetate salt] with pIC50 of 9 or above?
0 (no)

Reported pIC50 at or above 9? C#C[C@H](CC(=O)O)NC(=O)CNC(=O)c1cccc(NC(=O)NCc2ccccc2)c1 [Example 44]
1 (yes)

Assess whether reported pIC50 for N=C(N)Nc1cc(C(=O)NCC(=O)NC(CC(=O)O)c2cc(Br)cc(Br)c2)cc(C(F)(F)F)c1 (racemic) [Example 213, trifluoroacetate salt] sits at 9 or higher.
0 (no)

Is pIC50 at least 9? Consider CCN/C(=N\C)Nc1cccc(C(=O)NCC(=O)NC(CC(=O)O)c2ccc(F)cc2)c1 (racemic) [Example 297, trifluoroacetate salt]
0 (no)

From here, focus on the item given below.
Given the entry N=C(N)Nc1cccc(C(=O)NCC(=O)NC(CC(=O)O)c2cc(Br)ccc2O)c1 (racemic) [Example 228, trifluoroacetate salt, monohydrate] , answer whether its pIC50 meets or surpasses 9.
0 (no)

###

target: Human fibrinogen receptor (αIIbβ3) (Homo sapiens, UniProt P05106+P08514)
Construct: Human fibrinogen receptor (αIIbβ3) was purified from outdated platelets; from tissue; host or cells: outdated human platelets
protocol details: Purified IIb/IIIa receptor assay (solid phase receptor assay, competition with biotinylated vitronectin)
Assay type: binding
experimental conditions: read-out: IIb/IIIa IC50
Where a name gives a salt, the structure may show the parent alone.
Recorded IC50 values for a group of molecules are listed next.
Numbers only; they are read as nM.

Known results for molecules:
Provide the documented IC50 with Human fibrinogen receptor (αIIbβ3) (Homo sapiens, UniProt P05106+P08514) as the system for N=C(N)Nc1cccc(C(=O)NCC(=O)NC(CC(=O)O)c2cc(Br)cc(Br)c2)c1 (racemic) [Example 210, trifluoroacetate salt]
343

Query IC50 on Human fibrinogen receptor (αIIbβ3) (Homo sapiens, UniProt P05106+P08514) for C/N=C(\NC)Nc1cccc(C(=O)NCC(=O)NC(CC(=O)O)c2cc(Cl)cc(Cl)c2)c1 (racemic) [Example 294, trifluoroacetate salt]
1990

Item C#C[C@H](CC(=O)O)NC(=O)CNC(=O)c1ccc(Cl)c(NC(=N)N)c1 [Example 173, trifluoroacetate salt] with Human fibrinogen receptor (αIIbβ3) (Homo sapiens, UniProt P05106+P08514) - IC50?
17.4

What measured IC50 is associated with N=C(N)Nc1cccc(C(=O)NCC(=O)NC(CC(=O)O)c2cccnc2)c1 (racemic) on Human fibrinogen receptor (αIIbβ3) (Homo sapiens, UniProt P05106+P08514)?
51.2

Find the measured IC50: item N=C(N)Nc1cccc(C(=O)NCC(=O)NC(CC(=O)O)c2cccc(Br)c2)c1 (racemic) [Example 185, trifluoroacetate salt] , target or system Human fibrinogen receptor (αIIbβ3) (Homo sapiens, UniProt P05106+P08514).
166

More entries:
# returns recorded IC50 (system: Human fibrinogen receptor (αIIbβ3) (Homo sapiens, UniProt P05106+P08514)) for O=C(O)CC(NC(=O)CNC(=O)c1ccc(Cl)c(NC2=NCCCCC2)c1)c1cccnc1 (racemic) [Example 21, bis TFA Salt]
1910

Identify the measured IC50 of C#C[C@H](CC(=O)O)NC(=O)CNC(=O)c1cccc(NC2=NCCCCC2)c1 [Example 30, trifluoroacetate salt] for Human fibrinogen receptor (αIIbβ3) (Homo sapiens, UniProt P05106+P08514).
424

Query for Human fibrinogen receptor (αIIbβ3) (Homo sapiens, UniProt P05106+P08514): what IC50 does the record show for O=C(O)CC(NC(=O)CNC(=O)c1cccc(NC2=NCCCN2)c1)c1cc(Cl)cc(Br)c1O (racemic) [Example 236, trifluoroacetate salt, monohydrate] ?
1250

Which measured IC50 belongs to O=C(O)CC(NC(=O)CNC(=O)c1cccc(NC2=NCCCN2)c1)c1cc(Cl)cc(Br)c1 (racemic) [Example 215, trifluoroacetate salt] , tested on Human fibrinogen receptor (αIIbβ3) (Homo sapiens, UniProt P05106+P08514)?
656

Provide the documented IC50 with Human fibrinogen receptor (αIIbβ3) (Homo sapiens, UniProt P05106+P08514) as the system for N#C/N=C(\N)Nc1cccc(C(=O)NCC(=O)NC(CC(=O)O)c2ccccc2)c1 (stereo not drawn)
5820

State its IC50 on Human fibrinogen receptor (αIIbβ3) (Homo sapiens, UniProt P05106+P08514): CNC(=NC#N)Nc1cccc(C(=O)NCC(=O)NC(CC(=O)O)c2cc(Cl)cc(Cl)c2)c1 (racemic)
37800

Return IC50 measured with Human fibrinogen receptor (αIIbβ3) (Homo sapiens, UniProt P05106+P08514) given this molecule: O=C(CNC(=O)c1cccc(NC2=NCCCN2)c1)NC(CC(=O)OCCOCCOCCOCCO)c1cc(Cl)cc(Cl)c1 (racemic) [Example 217, trifluoroacetate salt]
78900

# value lookup — system Human fibrinogen receptor (αIIbβ3) (Homo sapiens, UniProt P05106+P08514), readout IC50, item COc1cc(C(CC(=O)O)NC(=O)CNC(=O)c2cccc(NC(=N)N)c2)cc2c1OCO2 (stereo not drawn) [Example 256, trifluoroacetate salt]
22

// map Nc1nnc(Nc2cccc(C(=O)NCC(=O)NC(CC(=O)O)c3cc(Cl)cc(Cl)c3)c2)[nH]1 (stereo not drawn) [Example 282, trifluoroacetate salt] to recorded IC50 (system: Human fibrinogen receptor (αIIbβ3) (Homo sapiens, UniProt P05106+P08514))
9770

Requested read-out IC50, target or system Human fibrinogen receptor (αIIbβ3) (Homo sapiens, UniProt P05106+P08514), entry CCN/C(=N\C)Nc1cccc(C(=O)NCC(=O)NC(CC(=O)O)c2cc(Cl)cc(Cl)c2)c1 (racemic) [Example 295, trifluoroacetate salt]
4560

What value of IC50 on Human fibrinogen receptor (αIIbβ3) (Homo sapiens, UniProt P05106+P08514) does O=C(O)CC(NC(=O)CNC(=O)c1cccc(NC2=NCCN2)c1)c1cc(Cl)cc(Cl)c1 (racemic) [Example 191, trifluoroacetate salt] have?
70.3

###

target: Human vitronectin receptor (αvβ3) (Homo sapiens, UniProt P05106+P06756)
Construct: Human vitronectin receptor (αvβ3) was purified from human placenta; from tissue; host or cells: human placenta
protocol details: Vitronectin adhesion assay (solid phase receptor assay, competition with biotinylated vitronectin)
Assay type: binding
experimental conditions: read-out: AvB3 IC50
Description: VITRONECTIN ADHESION ASSAY Assay buffer, OPD substrate tablets, and RIA grade BSA were obtained from Sigma (St. Louis, Mo.). Anti-biotin antibody was obtained from Calbiochem (La Jolla, Calif.). […] The purified human vitronectin receptor (αvβ3) was diluted from stock solutions to 1.0 μg/mL in Tris-buffered saline containing 1.0 mM Ca^++, Mg^++, and Mn^++, pH 7.4 (TBS^+++). […] The data were analyzed using a macro written for use with the EXCEL™ spreadsheet program. […]
Counter-ions that a name gives are not always drawn.
assay readout: log10 of IC50 (log10 of the value in nM)
Note: values are log10 of IC50 expressed in nM.

// known answers, use as guide
Using the record for C#C[C@H](CC(=O)O)NC(=O)CNC(=O)c1c(F)c(F)cc(NC(=N)N)c1F [Example 35, trifluoroacetate salt] , report its log10 of IC50.
1.76

Record request: log10 of IC50 value, item COc1cc(C(CC(=O)O)NC(=O)CNC(=O)c2cccc(NC(=N)N)c2)cc2c1OCO2 (stereo not drawn) [Example 256, trifluoroacetate salt]
-0.24

Field request: log10 of IC50 | item: O=C(O)CC(NC(=O)CNC(=O)c1cccc(Nc2cc(=O)[nH]c(=O)[nH]2)c1)c1cc(Cl)cc(Cl)c1 (stereo not drawn)
2.29

Please report the recorded log10 of IC50 for O=C(O)CC(NC(=O)CNC(=O)c1cccc(NC2=NCCCCC2)c1)c1ccc2c(c1)OCO2 (racemic) [Example 14, TFA salt] .
0.21

Please report the recorded log10 of IC50 for N=C(N)Nc1cc(C(=O)NCC(=O)NC(CC(=O)O)c2cc(Cl)cc(Cl)c2)cc(C(F)(F)F)c1 (racemic) [Example 177, trifluoroacetate salt] .
-0.24

Given the entry C#C[C@H](CC(=O)O)NC(=O)CNC(=O)c1ccc(Cl)c(NC(=N)N)c1 [Example 173, trifluoroacetate salt] , report its measured log10 of IC50.
-0.30

// query log10 of IC50 value for entry O=C(O)CC(NC(=O)CNC(=O)c1cccc(NC(=O)NCc2ccncc2)c1)c1cccnc1 (stereo not drawn)
-0.11

Suppose we examine the molecule O=C(CNC(=O)c1cccc(NC2=NCCCN2)c1)NC(CC(=O)OCCOCCOCCOCCO)c1cc(Cl)cc(Cl)c1 (racemic) [Example 217, trifluoroacetate salt] ; what log10 of IC50 value has been reported?
1.87

Which log10 of IC50 value belongs to O=C(O)CC(NC(=O)CNC(=O)c1cccc(NC2=NCCN2)c1)c1cccnc1 (racemic) ?
-0.04

So what does the record say about log10 of IC50 for O=C(O)CC(NC(=O)CNC(=O)c1cccc(Nc2nc3ccccc3o2)c1)c1cccnc1 (stereo not drawn) [Example 286, trifluoroacetate salt] ?
2.62

---
For the molecule N=C(N)Nc1cccc(C(=O)NCC(=O)NC(CC(=O)O)c2cc(Cl)cc(Cl)c2O)c1 (racemic) [Example 225, trifluoroacetate salt, monohydrate] , what log10 of IC50 is on record?
0.44

Item O=C(O)CC(NC(=O)CNC(=O)c1cccc(NC2=NCCS2)c1)c1cccnc1 (stereo not drawn) [Example 101, trifluoroacetate salt] has what recorded log10 of IC50?
3.23
